Attribution: the supplement of paper PMC9170038

System: MS2 coat protein
Assay: apparent KD of MS2 coat protein; designed switch direction (-1 OFF switch, 1 ON switch): -1; higher = weaker reporter binding
Details: input ligand: none
The following sequences are listed with their measured apparent KD of MS2 coat protein values.

>  <Biopolymer sequence>
GAUCGACAUGAGGAUCACCCAUGUCAGGAUAUGCAACGGACAAAACGAUACGUCAUAGGUAGAAGGGACUGUCU [Eternabot (Original) Solution 2] (Eterna round: R97, puzzle: Exclusion 1)

>  <apparent KD of MS2 coat protein (nM)>
17.7

$$$$
>  <Biopolymer sequence>
CUAAUACAUCAGGAUAUGAUAGCCUAUAGCAUAUCAGAAGGGAUGACAUGAGGAUCACCCAUGUCAAAGGGUGA [eternacac ex6r4 sub19] (Eterna round: R97, puzzle: Exclusion 6)

>  <apparent KD of MS2 coat protein (nM)>
444

$$$$
>  <Biopolymer sequence>
GCAAGCUUAAUCACUAUGAACAUGAGGAUCACCCAUGUAUAAGGUAUUACUUUUGGGCCCUUUAUUACUCGUCUUAU [JR_STOV1_Sub031] (Eterna round: R97, puzzle: Sensor, turn-off variant 1)

>  <apparent KD of MS2 coat protein (nM)>
54.4

$$$$
>  <Biopolymer sequence>
GUGGGUUACAUGAGGAUCACCCAUGUAUAGUGGGAAGAGAUAUAGGAUAUAAUAUAAAAAUUAUAUUAGAAGGAUAGAGACUAG [AK ExNG3-1.2] (Eterna round: R96, puzzle: Exclusion NG 3)

>  <apparent KD of MS2 coat protein (nM)>
505

$$$$
>  <Biopolymer sequence>
UUUUGGCAAGCGAGAUCCGACAUGAGGAUCACCCAUGUGCGGGCCCGAAAAGGGCCCGCGGUUGCUCGUCUUGUGUG [free energy optimized] (Eterna round: R97, puzzle: Sensor, turn-off variant 1)

>  <apparent KD of MS2 coat protein (nM)>
16.9

$$$$
>  <Biopolymer sequence>
ACAUGUUGUGCAGGAUAUGGGACACAUGAGGAUCACCCAUGUGGCUACAUGUCAUACCAAGCGUCUCAGAAGGGUAUUAACAUG [Ex NG2 #37] (Eterna round: R96, puzzle: Exclusion NG 2)

>  <apparent KD of MS2 coat protein (nM)>
23.2

$$$$
>  <Biopolymer sequence>
UCGGCGCUAGGAUAUGCGUCGAAAGACAUGAGGAUCACCCAUGUGGUGCUCCUUAUUAAAGCAGAAGGAGCCCGUA [EX5 A.17] (Eterna round: R97, puzzle: Exclusion 5)

>  <apparent KD of MS2 coat protein (nM)>
152

$$$$
>  <Biopolymer sequence>
UUUAGUUCAGGAUAUGUAGAAAUUAACAUGAGGAUCACCCAUGUAGAUCCUGAAUUAACUACAGAAGGGAACAUUU [JL-ex5-4.43 Brourd mod] (Eterna round: R97, puzzle: Exclusion 5)

>  <apparent KD of MS2 coat protein (nM)>
15.7

$$$$
>  <Biopolymer sequence>
UUUAAUUGUGACAUGGGUGACAUGAGGAUCACCCAUGUCACAAGCUUUUUGCUCGUCUUAUAAUUAACCCAUGUCAC [Stov1/13-A1] (Eterna round: R97, puzzle: Sensor, turn-off variant 1)

>  <apparent KD of MS2 coat protein (nM)>
27.7

$$$$

---

Tested on: K4 kissing-loop RNA reporter;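 also: bound reporter read as fluorescence of individual clusters on recovered sequencing chips by microscopy, with normalized cluster intensities fitted with a binding model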
Test: apparent KD of K4 kissing-loop reporter; higher = weaker reporter binding
Details: Eterna round: R107; input ligand: arginine 13.2 mM

>  <Biopolymer sequence>
AGUGAUGUGGGAAGGAGCGGUAUAUGAGUUCAGUGAUGUUGAAGUGAUGCUGUAGUGUUGUGCCAGGUAGGUCGCCUAGAUGUUA [KL-XARG B25]

>  <apparent KD of K4 kissing-loop reporter (nM)>
254

$$$$
>  <Biopolymer sequence>
UUUUUAUAAGAGGAUACCAGUACAAAUAAAGUACAUUAAUAGUAGAGUGAUGUUCUAAAGUACCCUUGGCAGCUUAGAGUAAGUU [ExTheophylB.C]

>  <apparent KD of K4 kissing-loop reporter (nM)>
281

$$$$
>  <Biopolymer sequence>
ACUGUACCGGGAAGGAGCGUGAAUGAGAAUGGAUAUAGUGAUGUUAUGUAUACGAACGAAUCGCAGGUAGGUCGCCCGGAUCCCU [SSArgB.aC]

>  <apparent KD of K4 kissing-loop reporter (nM)>
322

$$$$
>  <Biopolymer sequence>
CUCAAACCGUGGGCAUUUCGCAAAGUAGAUACCAGUCGCAACGGUGACCCUUGGCAGCUAGUAAAGUGAUGUUUUAUCGGCACCA [theeternabot_exclusion_KL_Theo_A_35]

>  <apparent KD of K4 kissing-loop reporter (nM)>
80.4

$$$$
>  <Biopolymer sequence>
AGAGAUAUAUGAGGAUAUGAGAUAGUUAAUGAGUGAGUUUUAGUGUUGUUUGGUUAGUGAUGUUAUUUAGAAGGCGUGAGUGAUG [grrfullin]

>  <apparent KD of K4 kissing-loop reporter (nM)>
66.5

$$$$
>  <Biopolymer sequence>
ACGACUGGAUGAAUAACAUCUAGUCGAGAUCGAGGACCGGUACGGCCGCCACUCGAGCUAACUGCGAGUGAUGUUCGAUAAUAAA [#OpenEnded 2]

>  <apparent KD of K4 kissing-loop reporter (nM)>
302

$$$$
>  <Biopolymer sequence>
UGGAUAUCGUUUAGUCUGGUGAGCUCAGAUACCAGACUAGCGAUAGUCCCUUGGCAGCUGAUUAUGAUUGAGUGAUGUUCAAUCG [Theo A Ex t9b]

>  <apparent KD of K4 kissing-loop reporter (nM)>
142

$$$$
>  <Biopolymer sequence>
AGAACUGUCUUGGAUACCAGUGAUGUUGGUAUCUAUGUGUGAGUGCAAAGCGUCCCACAUUGCCCUUGGCAGCUAAGACUGUUCA [Omei KL Theo B Exc A v2]

>  <apparent KD of K4 kissing-loop reporter (nM)>
132

$$$$
>  <Biopolymer sequence>
GGAGUUACCUGGGAUACCAGUCGGAGUCCCAGAGCACAGAGUGAUGUUCUGGGAUGUUUCGGCCCUUGGCAGCUCUGGGACUCCC [#2 Exclusion - Theophylline B Attempt #13 (HarryS)]

>  <apparent KD of K4 kissing-loop reporter (nM)>
254

$$$$
>  <Biopolymer sequence>
CAUUCAGUGAUGUUGGAAGGCGAGCGGGAUACCAGCGGAGACUCACGCCCUUGGCAGCCCACAUAUCCCAGGUAGAUAAUAGUUC [Same State - Theophylline A (Freestyle 6)]

>  <apparent KD of K4 kissing-loop reporter (nM)>
139

$$$$
>  <Biopolymer sequence>
UGAUAGGACAGAAGGAGCGGAAUGCUAGUCAAAGACUAGCAACGUUAAACAGGAGUGAUGUUCCAGGUAGGUCGCUGUCCUAUCU [ArgBX 22 #SwitchBubble #StaticStem]

>  <apparent KD of K4 kissing-loop reporter (nM)>
124

$$$$
>  <Biopolymer sequence>
GCCAGAGCGCGAAGGAGCGCCGUGACAGGUUGCUGCCGUGGGCAGUGAUGUUGCUCAAUCUGGCAGGUAGGUCGCGUGCUCUGGC

>  <apparent KD of K4 kissing-loop reporter (nM)>
219

$$$$
